Biological target: T1, secretory phospholipase A2 (sPLA2) (Homo sapiens, UniProt P14555 P14555:21-144)
T1 sequence: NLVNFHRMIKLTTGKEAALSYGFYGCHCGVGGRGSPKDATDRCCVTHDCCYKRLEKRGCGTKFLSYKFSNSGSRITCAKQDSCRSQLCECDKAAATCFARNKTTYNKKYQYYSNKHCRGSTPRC
Experiment: filter; only low-affinity Kd2 listed; 5' G removed; TBSC, 37 C
Settings: tags: supplied by Eli Lilly
measured-attribute: Kd (µM)
Give a bare numeral; the unit µM is implied.

Give me measured Kd, please, for this binder: 87.4 (ssRNA) RNA: GGAGCUCAGAAUAAACGCUCAAGCUCUGGGAUGAUGCCCACUGUCCAGCAUCUUCGACAUG
4.35

Reference source for all entries: patent US5622828
